Origin of values: PubChem BioAssay (Tox21)

target: Acetylcholinesterase (Homo sapiens); assay: Acetylcholinesterase (AChE) small molecule antagonists: enzyme-based qHTS assay with human liver microsomes (AID 1347399); conditions: qHTS inhibition; series mostly up to 115 µM; further: nearly all actives have a fitted effect of over 60% in size
Activity calls are given as the source filed them. The call rests on the fitted dose curve.
Answer with one of the outcomes given here: active, inactive

Example cases with answers are listed next.
{"columns": ["compound", "class"],
 "data": [
  ["N#CNC#N", "inactive"],
  ["O=C(O)COc1nc(Cl)c(Cl)cc1Cl", "inactive"]
]}

Look up the recorded call for "ClCc1ccccc1CCl" in this test.
inactive

Look up the recorded call for O=c1c(C2CC(c3ccc(-c4ccc(Br)cc4)cc3)Cc3ccccc32)c(O)sc2ccccc12 (stereo not given) in this test.
inactive

Look up the recorded call for "ClC(Cl)=C(c1ccc(Cl)cc1)c1ccc(Cl)cc1" in this test.
inactive

Look up the recorded call for "CN(C)CCc1c[nH]c2cccc(O)c12" in this test.
inactive

Look up the recorded call for "CC(C)OS(C)(=O)=O" in this test.
inactive

Look up the recorded call for "CN(C)S(=O)(=O)N(SC(F)(Cl)Cl)c1ccccc1" in this test.
active

Look up the recorded call for "S=C(SSC(=S)N1CCCCC1)N1CCCCC1" in this test.
inactive

Look up the recorded call for CCCCCCCCCCCCCC[P+](CCCCCC)(CCCCCC)CCCCCC (tested in a mixture with another compound) in this test.
inactive

Look up the recorded call for "Clc1ccc(C(c2ccc(Cl)cc2)C(Cl)(Cl)Cl)cc1" in this test.
inactive

Look up the recorded call for "C[As+](C)(C)CC(=O)[O-]" in this test.
inactive

Look up the recorded call for "C[C@]12CC[C@H](O)C[C@H]1CC[C@@H]1[C@@H]2C[C@@H](O)[C@]2(C)[C@@H](C3=CC(=O)OC3)CC[C@]12O" in this test.
inactive

Look up the recorded call for "O=c1ssc(Cl)c1Cl" in this test.
inactive

Look up the recorded call for CCC(C)c1cc([N+](=O)[O-])cc([N+](=O)[O-])c1OC(=O)C=C(C)C (stereo not given) in this test.
inactive

Look up the recorded call for "Nc1ccccc1C(=O)Oc1ccc2ccccc2c1" in this test.
inactive

* * *

target: Aromatase (Homo sapiens) (UniProt P11511); assay: qHTS assay to identify aromatase inhibitors (AID 743083); settings: MCF-7 aro ERE, testosterone-driven ERE luciferase, 24 h; series mostly up to 70.3 µM; further: nearly all actives have a fitted effect of over 55% in size
Sequence (P11511 whole entry, looked up): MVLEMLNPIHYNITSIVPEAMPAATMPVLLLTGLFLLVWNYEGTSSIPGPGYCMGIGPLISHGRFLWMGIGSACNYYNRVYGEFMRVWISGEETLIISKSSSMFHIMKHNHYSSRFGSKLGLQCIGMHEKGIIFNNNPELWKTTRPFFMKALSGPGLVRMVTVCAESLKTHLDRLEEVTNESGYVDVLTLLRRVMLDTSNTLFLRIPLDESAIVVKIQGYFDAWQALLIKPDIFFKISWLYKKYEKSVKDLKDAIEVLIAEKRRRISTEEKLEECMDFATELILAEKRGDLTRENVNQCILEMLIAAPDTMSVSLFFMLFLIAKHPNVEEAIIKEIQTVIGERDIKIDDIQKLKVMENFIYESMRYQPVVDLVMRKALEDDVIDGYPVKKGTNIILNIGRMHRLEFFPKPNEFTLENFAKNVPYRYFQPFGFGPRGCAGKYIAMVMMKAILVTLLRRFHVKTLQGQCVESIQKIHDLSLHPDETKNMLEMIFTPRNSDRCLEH
Results filed as inconclusive are left out. Active and inactive are the calls of the source. Calls follow the shape of the dose curve; as a rule, active = well fitted inhibition curve with a large enough effect in the repeat runs; inconclusive = weak or mixed curves; inactive = no such curve, though single readings can be large or run the other way.
Answer with one of the outcomes given here: True for active, False for inactive

{"columns": ["molecule", "systemUnderTest", "class"],
 "data": [
  ["Fc1cccc(Cl)c1CCl", "Aromatase (Homo sapiens) (UniProt P11511)", "False"],
  ["ClC1=C(Cl)C2(Cl)C3C(Cl)C=CC3C1(Cl)C2(Cl)Cl (configuration not stated)", "Aromatase (Homo sapiens) (UniProt P11511)", "True"],
  ["BrC(Br)C(Br)(Br)Br", "Aromatase (Homo sapiens) (UniProt P11511)", "True"],
  ["CC(=O)/C=C/c1ccc2c(c1)OCO2", "Aromatase (Homo sapiens) (UniProt P11511)", "False"],
  ["CCCCCCCCCCCCCN1CC(C)OC(C)C1 (configuration not stated)", "Aromatase (Homo sapiens) (UniProt P11511)", "False"]
]}

Look up the recorded call for "Cc1cc(C)cc(OP(=O)(Oc2cc(C)cc(C)c2)Oc2cc(C)cc(C)c2)c1" in this test.
False

Look up the recorded call for "O=CC(Br)(Br)Br" in this test.
True

* * *

target: Nuclear receptor subfamily 1 group I member 2 (Homo sapiens); assay: Human pregnane X receptor (PXR) small molecule agonists, qHTS assay (AID 1346982); settings: PXR-Luc HepG2, CYP3A4 luciferase reporter, 24 h; series mostly up to 92.4 µM; further: nearly all actives have a fitted effect of over 35% in size
Records with an inconclusive call do not appear. Calls of active or inactive are those of the source. Calls come from the whole dose curve; as a rule, active = well fitted activation curve with a large enough effect in the repeat runs; inconclusive = weak or mixed curves; inactive = no such curve, though single readings can be large or run the other way.
Answer with one of the outcomes given here: true (1) (active), false (0) (inactive)

Look up the recorded call for CCCCCCCCCCCCCC[P+](CCCCCC)(CCCCCC)CCCCCC (tested in a mixture with another compound) in this test.
true (1)

Look up the recorded call for "Cn1[nH]nnc1=S" in this test.
false (0)

Look up the recorded call for "Cc1cc(Cl)ccc1O[C@H](C)C(=O)O" in this test.
false (0)

Look up the recorded call for "CC(=O)/C=C/c1ccc2c(c1)OCO2" in this test.
true (1)

Look up the recorded call for "S=C=Nc1cccc2ccccc12" in this test.
true (1)

Look up the recorded call for O=C1c2ccccc2C(=O)C1C(=O)C(c1ccccc1)c1ccc(Cl)cc1 (stereo unspecified) in this test.
true (1)

* * *

test: qHTS assay to identify small molecule agonists of the retinoic acid receptor (RAR) signaling pathway (AID 1159553); conditions: C3RL4 RARE luciferase reporter, agonist, 6 h; series mostly up to 73.3 µM
Records with an inconclusive call do not appear. Active and inactive are the calls of the source. Calls come from the whole dose curve; as a rule, active = well fitted activation curve with a large enough effect in the repeat runs; inconclusive = weak or mixed curves, or effect the other way; inactive = no such curve, though single readings can be large or run the other way.
Answer with one of the outcomes given here: Yes (active), No (inactive)

Example cases with answers are listed next.
{"columns": ["molecule", "class"],
 "data": [
  ["Cc1ccc(OP(=O)(Oc2ccccc2)Oc2ccccc2)cc1", "No"],
  ["N#CNC#N", "No"],
  ["Cn1cc(C2=C(c3cn(C4CCN(Cc5ccccn5)CC4)c4ccccc34)C(=O)NC2=O)c2ccccc21", "No"],
  ["O=[N+]([O-])c1ccc2ccc3cccc4ccc1c2c34", "No"],
  ["Fc1cccc(Cl)c1CCl", "No"]
]}

Look up the recorded call for "CC(C)(O)c1cnn2c(-c3ccc(F)c(-c4c(F)cccc4C#N)c3)cnc2n1" in this test.
No

Look up the recorded call for CCCCCCCCCCCCCN1CC(C)OC(C)C1 (stereo unspecified) in this test.
No

* * *

experiment: A CellTox Green Cytotoxicity Assay to monitor cytotoxicity in HepG2 cells - 8 hour (AID 1224890); conditions: CellTox Green fluorescence; series mostly up to 76.8 µM; further: nearly all actives have a fitted effect of over 45% in size; further: potency means the concentration at half of the fitted maximal effect
Inconclusive results are not listed. Calls of active or inactive are those of the source. The call rests on the fitted dose curve; in most records, active means well fitted activation curve with a large enough effect in the repeat runs; inconclusive means weak or mixed curves; inactive means flat fitted curve, though single readings scatter.
experimentalReadout: Potency

Please review the following examples before continuing.
{"columns": ["compound", "Potency"],
 "data": [
  ["FC(Cl)(Cl)Cl", "inactive"],
  ["c1ccc2cc3c(cc2c1)-c1cccc2cccc-3c12", "inactive"],
  ["CCOC(=O)c1ccccc1S(=O)(=O)NC(=O)Nc1nc(Cl)cc(OC)n1", "inactive"],
  ["SCc1ccco1", "inactive"],
  ["CN(C)CCc1c[nH]c2cccc(O)c12", "inactive"]
]}

Read off the recorded Potency for "[Hg+2].[I-].[I-]"
15.5 µM (active)

Read off the recorded Potency for N#CCCC(Br)(C#N)CBr (configuration not stated)
54.9 µM (active)

Read off the recorded Potency for "CCCCCCCCc1ccc(O)cc1"
17.5 µM (active)

Read off the recorded Potency for COc1ccc(OC)c(CC(C)N)c1 (configuration not stated)
inactive

Read off the recorded Potency for "CCC[CH2][Sn]([CH2]CCC)([CH2]CCC)[O]C(=O)c1ccccc1"
1.1 µM (active)

Read off the recorded Potency for "Cc1cc(SCc2sc(-c3ccc(C(F)(F)F)c(F)c3)nc2C)ccc1OCC(=O)O"
inactive

Read off the recorded Potency for "Clc1ccc(-c2ccc(Cl)c(Cl)c2Cl)c(Cl)c1Cl"
inactive

Read off the recorded Potency for "Oc1ccc(C(=C(Cl)Cl)c2ccc(O)cc2)cc1"
inactive

Read off the recorded Potency for "ClCCN1CCOCC1"
inactive

* * *

assay: qHTS assay for identifying genotoxic compounds that show differential cytotoxicity against isogenic chicken DT40 cell lines with known DNA damage response pathways - wild type cell line (AID 743012); settings: DT40 wild type chicken cells viability, CellTiter-Glo, 40 h; series mostly up to 68.4 µM; further: nearly all actives have a fitted effect of over 60% in size
Records with an inconclusive call do not appear. Calls of active or inactive are those of the source. Calls come from the whole dose curve; as a rule, active = well fitted cell-killing curve with a large enough effect in the repeat runs; inconclusive = weak or mixed curves, or effect the other way; inactive = no such curve, though single readings can be large or run the other way.
Answer with one of the outcomes given here: active, inactive

Example cases with answers are listed next.
{"columns": ["molecule", "class"],
 "data": [
  ["CC(C)(C)c1ccc(CSc2cnn(C(C)(C)C)c(=O)c2Cl)cc1", "active"],
  ["CC(=O)O[C@H]1CC[C@@]2(C)C(=CC[C@@H]3[C@@H]2CC[C@]2(C)C(=O)CC[C@@H]32)C1", "inactive"],
  ["CC1(c2ccc(Oc3ccccc3)cc2)OC(=O)N(Nc2ccccc2)C1=O (stereo unspecified)", "active"]
]}

Look up the recorded call for "CC(C)[C@H](C(=O)O[C@H](C#N)c1cccc(Oc2ccccc2)c1)c1ccc(Cl)cc1" in this test.
active

Look up the recorded call for "FC(Cl)(Cl)Cl" in this test.
inactive

* * *

experiment: A CellTox Green Cytotoxicity Assay to monitor cytotoxicity in HepG2 cells - 24 hour (AID 1224878); details: CellTox Green fluorescence; series mostly up to 76.8 µM; further: nearly all actives have a fitted effect of over 45% in size
Records with an inconclusive call do not appear. The source made the active and inactive calls. Calls follow the shape of the dose curve; as a rule, active = well fitted activation curve with a large enough effect in the repeat runs; inconclusive = weak or mixed curves; inactive = flat fitted curve, though single readings scatter.
experimentalReadout: outcome

{"columns": ["molecule", "outcome"],
 "data": [
  ["CCOP(=S)(OCC)SCS(=O)(=O)CC", "inactive"],
  ["CC(C)(C)c1ccc(CSc2cnn(C(C)(C)C)c(=O)c2Cl)cc1", "inactive"],
  ["CC(=[OH+])/C=C(/C)[O-].CC(=[OH+])/C=C(\\C)[O-].CC(=[OH+])/C=C(\\C)[O-].[Fe]", "inactive"],
  ["CC(C)CCCCCOC(=O)c1ccccc1C(=O)OCCCCCC(C)C", "inactive"],
  ["O=[N+]([O-])c1cc(Cl)ccc1Cl", "inactive"]
]}

Read off the recorded outcome for OC(Cc1ccccc1Cl)(Cn1cncn1)C1(Cl)CC1 (configuration not stated)
inactive

Read off the recorded outcome for "O=c1oc2ccccc2c(O)c1Cc1c(O)c2ccccc2oc1=O"
inactive
